testedTarget: human GLP-1 receptor (Homo sapiens, UniProt P43220)
Construct: expressed in transfected cells; host or cells: Chinese hamster ovary (CHO)
Sequence (P43220 24-463): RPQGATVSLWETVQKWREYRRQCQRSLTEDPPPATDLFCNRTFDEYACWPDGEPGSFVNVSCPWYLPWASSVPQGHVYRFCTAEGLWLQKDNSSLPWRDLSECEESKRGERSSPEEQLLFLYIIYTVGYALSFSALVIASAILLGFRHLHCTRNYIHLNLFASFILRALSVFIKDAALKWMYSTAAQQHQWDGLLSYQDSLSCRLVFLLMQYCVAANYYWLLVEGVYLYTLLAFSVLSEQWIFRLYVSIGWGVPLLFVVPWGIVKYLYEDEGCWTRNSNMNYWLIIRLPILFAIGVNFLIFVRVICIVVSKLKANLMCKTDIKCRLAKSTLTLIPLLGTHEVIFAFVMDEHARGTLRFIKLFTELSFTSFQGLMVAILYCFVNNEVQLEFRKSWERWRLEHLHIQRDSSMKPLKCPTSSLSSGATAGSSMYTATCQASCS
protocolText: In vitro cAMP activity in human GLP-1 receptor-expressing CHO cells (LANCE cAMP kit)
Format: cell-based
conditionsUsed: long-acting conjugates; relative titer from cAMP EC50 compared to human GLP-1
Bridge positions count the residues as written; N and C are the ends. Square brackets hold non-standard residues; d marks the D form. Ends that are not written are not given here. Aib = CC(C)(N)C(=O)O
In vitro activity compared to native peptide (%) vs GLP-1 strictly under 3% means fulfilled; at 3% or over means not fulfilled.

21 (Y[Aib]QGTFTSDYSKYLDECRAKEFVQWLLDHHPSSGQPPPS; bridge 16-20) [compound 21] : fulfilled
42 (Y[Aib]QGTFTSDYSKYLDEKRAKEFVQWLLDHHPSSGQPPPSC; bridge 16-20) [compound 42] : not fulfilled
96 (Y[Aib]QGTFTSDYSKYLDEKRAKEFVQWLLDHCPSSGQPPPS; bridge 16-20) [compound 96] : fulfilled
22 (Y[Aib]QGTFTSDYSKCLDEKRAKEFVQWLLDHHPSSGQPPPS; bridge 16-20) [compound 22] : fulfilled
43 (Y[Aib]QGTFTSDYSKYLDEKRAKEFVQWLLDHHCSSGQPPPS; bridge 16-20) [compound 43] : fulfilled

Input: # strict comparison: is reported In vitro activity compared to native peptide (%) vs GLP-1 < 3%? input = 77 (Y[Aib]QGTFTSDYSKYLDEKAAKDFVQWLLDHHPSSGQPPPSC; bridge 16-20) [compound 77]
Output: not fulfilled

Input: # strict comparison: is reported In vitro activity compared to native peptide (%) vs GLP-1 < 3%? input = 50 (H[Aib]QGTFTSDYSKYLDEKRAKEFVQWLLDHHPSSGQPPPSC; bridge 16-20) [compound 50]
Output: not fulfilled
